- Experiment: Equilibrium solubility of drug substance in media with solubilizer (excess drug, rotated 48 hours at room temperature, filtered, HPLC)
- Format: physicochemical
- Condition: 2% (w/v) HP-β-cyclodextrin in water, aqueous with cosolvent or surfactant or cyclodextrin, thermodynamic from solid, 2% (w/v) HP-β-cyclodextrin, aqueous; read-out: Carbamazepine Solubility
Result Type: solubility at 48 h (µg/mL)
Give your result in µg/mL as a bare value.

input: Note solubility at 48 h for the compound shown: NC(=O)N1c2ccccc2C=Cc2ccccc21 [Carbamazepine]
output: 1240

* * *

- Experiment: Equilibrium solubility of drug substance in media with solubilizer (excess drug, rotated 48 hours at room temperature, filtered, HPLC)
- Type: physicochemical
- Condition: 1% (w/v) β-cyclodextrin in water, aqueous with cosolvent or surfactant or cyclodextrin, thermodynamic from solid, 1% (w/v) β-Cyclodextrin, aqueous; read-out: Carbamazepine Solubility
Result Type: solubility at 48 h (µg/mL)
Give your result in µg/mL as a bare value.

input: Note solubility at 48 h for the compound shown: NC(=O)N1c2ccccc2C=Cc2ccccc21 [Carbamazepine]
output: 669

* * *

- Experiment: Equilibrium solubility of drug substance in media with solubilizer (excess drug, rotated 48 hours at room temperature, filtered, HPLC)
- Type: physicochemical
- Condition: aqueous media with solubilizer, aqueous with cosolvent or surfactant or cyclodextrin, thermodynamic from solid, 10% (w/v) Tween 80, aqueous; read-out: Oxcarbazepine Solubility
Result Type: solubility at 48 h (µg/mL)
Give your result in µg/mL as a bare value.

input: Note solubility at 48 h for the compound shown: NC(=O)N1c2ccccc2CC(=O)c2ccccc21 [Oxcarbazepine]
output: 500

* * *

- Experiment: Equilibrium solubility of drug substance in media with solubilizer (excess drug, rotated 48 hours at room temperature, filtered, HPLC)
- Type: physicochemical
- Condition: 5% (w/v) crystalline methylated β-cyclodextrin in water, aqueous with cosolvent or surfactant or cyclodextrin, thermodynamic from solid, 5% (w/v) Cryst. Methylated β-CD, aqueous; read-out: Carbamazepine Solubility
Result Type: solubility at 48 h (µg/mL)
Give your result in µg/mL as a bare value.

input: Note solubility at 48 h for the compound shown: NC(=O)N1c2ccccc2C=Cc2ccccc21 [Carbamazepine]
output: 3590
